- measured-target: UniProtKB Q96SW2
- Sequence (Q96SW2 whole entry): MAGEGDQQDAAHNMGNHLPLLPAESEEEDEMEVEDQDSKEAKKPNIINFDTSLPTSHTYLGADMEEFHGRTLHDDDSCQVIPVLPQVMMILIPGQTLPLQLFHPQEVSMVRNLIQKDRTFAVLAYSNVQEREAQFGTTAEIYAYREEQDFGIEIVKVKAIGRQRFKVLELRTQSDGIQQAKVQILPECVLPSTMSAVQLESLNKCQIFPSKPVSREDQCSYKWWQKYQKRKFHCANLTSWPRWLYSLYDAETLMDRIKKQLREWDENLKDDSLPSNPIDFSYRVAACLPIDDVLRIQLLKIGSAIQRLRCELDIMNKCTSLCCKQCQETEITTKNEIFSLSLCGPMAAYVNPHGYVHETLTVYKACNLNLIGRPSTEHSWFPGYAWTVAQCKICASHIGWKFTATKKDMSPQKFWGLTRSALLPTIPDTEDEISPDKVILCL
- Sequence (Q16531 whole entry partner): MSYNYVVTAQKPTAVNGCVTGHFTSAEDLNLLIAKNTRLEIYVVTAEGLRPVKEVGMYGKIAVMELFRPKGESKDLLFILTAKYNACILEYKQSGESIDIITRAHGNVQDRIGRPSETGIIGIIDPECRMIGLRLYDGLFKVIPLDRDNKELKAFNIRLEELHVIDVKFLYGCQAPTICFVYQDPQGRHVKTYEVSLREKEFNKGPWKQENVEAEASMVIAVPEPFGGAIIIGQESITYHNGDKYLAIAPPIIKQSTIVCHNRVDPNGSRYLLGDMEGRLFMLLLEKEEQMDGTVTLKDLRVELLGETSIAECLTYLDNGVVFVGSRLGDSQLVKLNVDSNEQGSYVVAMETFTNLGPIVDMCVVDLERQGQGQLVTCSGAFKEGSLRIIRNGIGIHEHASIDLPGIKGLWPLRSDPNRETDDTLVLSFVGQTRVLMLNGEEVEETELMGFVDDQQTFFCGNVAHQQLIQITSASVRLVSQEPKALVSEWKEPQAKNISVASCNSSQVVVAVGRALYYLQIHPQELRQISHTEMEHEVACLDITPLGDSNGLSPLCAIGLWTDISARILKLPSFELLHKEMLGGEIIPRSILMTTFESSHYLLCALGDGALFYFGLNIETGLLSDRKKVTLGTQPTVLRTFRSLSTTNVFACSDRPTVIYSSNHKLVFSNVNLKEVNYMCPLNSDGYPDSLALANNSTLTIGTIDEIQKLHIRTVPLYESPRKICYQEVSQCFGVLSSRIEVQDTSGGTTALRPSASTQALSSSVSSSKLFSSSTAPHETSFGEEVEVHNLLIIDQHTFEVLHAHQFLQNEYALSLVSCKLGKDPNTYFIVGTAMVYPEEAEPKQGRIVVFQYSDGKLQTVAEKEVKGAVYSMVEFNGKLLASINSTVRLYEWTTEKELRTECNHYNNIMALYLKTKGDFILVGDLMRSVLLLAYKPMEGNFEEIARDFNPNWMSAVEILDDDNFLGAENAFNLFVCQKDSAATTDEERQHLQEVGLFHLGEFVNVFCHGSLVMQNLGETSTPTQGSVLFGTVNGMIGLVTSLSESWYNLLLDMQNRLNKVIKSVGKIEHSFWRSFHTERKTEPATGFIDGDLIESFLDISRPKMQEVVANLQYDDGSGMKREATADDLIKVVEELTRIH
pIC50: −log10 of the molar value.
observed-property: pIC50

C[C@H]1CC[C@H](NC(=O)OC2CN(c3cc(F)c(C4CCC(=O)NC4=O)c(F)c3)C2)CC1 (some centres unmarked) = ≥ 7.00
O=C1CCC(c2ccc(N3CC(OC(=O)Nc4cccc(OC(F)(F)F)c4)C3)cc2Cl)C(=O)N1 (centres unmarked) = < 6.00
O=C1CCC(c2c(F)cc(N3CC(OC(=O)NC4CCC4)C3)cc2F)C(=O)N1 (centres unmarked) = 6.00 to 7.00
Cc1ccc(NC(=O)OC2CN(c3ccc(C4CCC(=O)NC4=O)c(Cl)c3F)C2)cc1Cl (centres unmarked) = < 6.00
Cc1ccc(NC(=O)NC2CN(c3ccc(C4CCC(=O)NC4=O)c(F)c3)C2)cc1Cl (centres unmarked) = 6.00 to 7.00

[in] Would you mind telling me what pIC50 value was observed for O=C1CCC(c2ccc(N3CC(NC(=O)Nc4cc(OC(F)(F)F)ccn4)C3)cc2)C(=O)N1 (centres unmarked) ?
[out] 6.00 to 7.00

[in] Param item: CC(C)(C)NC(=O)OC1CN(c2cc(F)c(C3CCC(=O)NC3=O)c(F)c2)C1 (centres unmarked)
[out] 6.00 to 7.00

[in] Proceed to O=C1CCC(c2c(F)cc(N3CC(OC(=O)Nc4cccc(OC5CC5)c4)C3)cc2F)C(=O)N1 (centres unmarked)
[out] 6.00 to 7.00

[in] // same read-out, input: Cc1c(Cl)cc(NC(=O)OC2CN(c3cc(F)c(C4CCC(=O)NC4=O)c(F)c3)C2)cc1OCCN1CCOCC1 (centres unmarked)
[out] 6.00 to 7.00

[in] Record: O=C1CCC(c2c(F)cc(N3CC(OC(=O)NC4CCOCC4)C3)cc2F)C(=O)N1 (centres unmarked)
[out] 6.00 to 7.00

[in] Subsequent entry: O=C1CCC(c2c(F)cc(N3CC(OC(=O)NC4CCCCCC4)C3)cc2F)C(=O)N1 (centres unmarked)
[out] ≥ 7.00

[in] Query Cc1cc(C)cc(NC(=O)NC2CN(c3ccc(C4CCC(=O)NC4=O)c(Cl)c3)C2)c1 (centres unmarked) next
[out] 6.00 to 7.00

[in] Same question for Cc1cc(C#N)cc(NC(=O)OC2CN(c3cc(F)c(C4CCC(=O)NC4=O)c(F)c3)C2)c1 (centres unmarked) please.
[out] 6.00 to 7.00

[in] Also check CC1(c2ccc(NC(=O)NC3CN(c4cc(F)c(C5CCC(=O)NC5=O)c(F)c4)C3)cn2)CC1 (centres unmarked)
[out] 6.00 to 7.00

[in] What do you get for Cc1ccccc1-c1ccc(NC(=O)NC2CN(c3cc(F)c(C4CCC(=O)NC4=O)c(F)c3)C2)cn1 (centres unmarked) ?
[out] ≥ 7.00

[in] Request: N#Cc1cc(Cl)cc(NC(=O)OC2CN(c3cc(F)c(C4CCC(=O)NC4=O)c(F)c3)C2)c1 (centres unmarked)
[out] 6.00 to 7.00

[in] Again, but for C[C@H]1C[C@@H](NC(=O)OC2CN(c3cc(F)c(C4CCC(=O)NC4=O)c(F)c3)C2)C1 (some centres unmarked)
[out] ≥ 7.00

[in] What would you report for O=C1CCC(c2c(F)cc(N3CC(OC(=O)Nc4cccc(OC(F)(F)F)c4)C3)cc2F)C(=O)N1 (centres unmarked) ?
[out] 6.00 to 7.00

[in] Entry to check: O=C1CCC(c2c(F)cc(N3CC(OC(=O)N[C@H]4CCCOC4)C3)cc2F)C(=O)N1 (some centres unmarked)
[out] 6.00 to 7.00

[in] // same read-out, input: O=C1CCC(c2c(F)cc(N3CC(OC(=O)NC45CC(N6CCCCC6)(C4)C5)C3)cc2F)C(=O)N1 (centres unmarked)
[out] ≥ 7.00

[in] Would you kindly repeat that for Cc1cc(C)cc(NC(=O)OC2CN(c3cc(F)c(C4CCC(=O)NC4=O)c(F)c3)C2)c1 (centres unmarked) ?
[out] 6.00 to 7.00

[in] Same for C[C@H](NC(=O)OC1CN(c2cc(F)c(C3CCC(=O)NC3=O)c(F)c2)C1)c1ccccc1 (some centres unmarked)
[out] 6.00 to 7.00

[in] // next record O=C1CCC(c2c(F)cc(N3CC(NC(=O)Nc4ccc(F)c(OC(F)F)c4)C3)cc2F)C(=O)N1 (centres unmarked)
[out] 6.00 to 7.00
